target: ROS (Homo sapiens); experiment: In vitro ROS enzymatic reaction assay (HTRF, Cisbio); type: biochemical; parameters: ROS or EGFR enzyme, 0.008 ng/ul; settings: ROS kinase, compound at 10 uM; read-out: Kinase Inhib. 10 uM (%)
Sequence (P08922 28-2347): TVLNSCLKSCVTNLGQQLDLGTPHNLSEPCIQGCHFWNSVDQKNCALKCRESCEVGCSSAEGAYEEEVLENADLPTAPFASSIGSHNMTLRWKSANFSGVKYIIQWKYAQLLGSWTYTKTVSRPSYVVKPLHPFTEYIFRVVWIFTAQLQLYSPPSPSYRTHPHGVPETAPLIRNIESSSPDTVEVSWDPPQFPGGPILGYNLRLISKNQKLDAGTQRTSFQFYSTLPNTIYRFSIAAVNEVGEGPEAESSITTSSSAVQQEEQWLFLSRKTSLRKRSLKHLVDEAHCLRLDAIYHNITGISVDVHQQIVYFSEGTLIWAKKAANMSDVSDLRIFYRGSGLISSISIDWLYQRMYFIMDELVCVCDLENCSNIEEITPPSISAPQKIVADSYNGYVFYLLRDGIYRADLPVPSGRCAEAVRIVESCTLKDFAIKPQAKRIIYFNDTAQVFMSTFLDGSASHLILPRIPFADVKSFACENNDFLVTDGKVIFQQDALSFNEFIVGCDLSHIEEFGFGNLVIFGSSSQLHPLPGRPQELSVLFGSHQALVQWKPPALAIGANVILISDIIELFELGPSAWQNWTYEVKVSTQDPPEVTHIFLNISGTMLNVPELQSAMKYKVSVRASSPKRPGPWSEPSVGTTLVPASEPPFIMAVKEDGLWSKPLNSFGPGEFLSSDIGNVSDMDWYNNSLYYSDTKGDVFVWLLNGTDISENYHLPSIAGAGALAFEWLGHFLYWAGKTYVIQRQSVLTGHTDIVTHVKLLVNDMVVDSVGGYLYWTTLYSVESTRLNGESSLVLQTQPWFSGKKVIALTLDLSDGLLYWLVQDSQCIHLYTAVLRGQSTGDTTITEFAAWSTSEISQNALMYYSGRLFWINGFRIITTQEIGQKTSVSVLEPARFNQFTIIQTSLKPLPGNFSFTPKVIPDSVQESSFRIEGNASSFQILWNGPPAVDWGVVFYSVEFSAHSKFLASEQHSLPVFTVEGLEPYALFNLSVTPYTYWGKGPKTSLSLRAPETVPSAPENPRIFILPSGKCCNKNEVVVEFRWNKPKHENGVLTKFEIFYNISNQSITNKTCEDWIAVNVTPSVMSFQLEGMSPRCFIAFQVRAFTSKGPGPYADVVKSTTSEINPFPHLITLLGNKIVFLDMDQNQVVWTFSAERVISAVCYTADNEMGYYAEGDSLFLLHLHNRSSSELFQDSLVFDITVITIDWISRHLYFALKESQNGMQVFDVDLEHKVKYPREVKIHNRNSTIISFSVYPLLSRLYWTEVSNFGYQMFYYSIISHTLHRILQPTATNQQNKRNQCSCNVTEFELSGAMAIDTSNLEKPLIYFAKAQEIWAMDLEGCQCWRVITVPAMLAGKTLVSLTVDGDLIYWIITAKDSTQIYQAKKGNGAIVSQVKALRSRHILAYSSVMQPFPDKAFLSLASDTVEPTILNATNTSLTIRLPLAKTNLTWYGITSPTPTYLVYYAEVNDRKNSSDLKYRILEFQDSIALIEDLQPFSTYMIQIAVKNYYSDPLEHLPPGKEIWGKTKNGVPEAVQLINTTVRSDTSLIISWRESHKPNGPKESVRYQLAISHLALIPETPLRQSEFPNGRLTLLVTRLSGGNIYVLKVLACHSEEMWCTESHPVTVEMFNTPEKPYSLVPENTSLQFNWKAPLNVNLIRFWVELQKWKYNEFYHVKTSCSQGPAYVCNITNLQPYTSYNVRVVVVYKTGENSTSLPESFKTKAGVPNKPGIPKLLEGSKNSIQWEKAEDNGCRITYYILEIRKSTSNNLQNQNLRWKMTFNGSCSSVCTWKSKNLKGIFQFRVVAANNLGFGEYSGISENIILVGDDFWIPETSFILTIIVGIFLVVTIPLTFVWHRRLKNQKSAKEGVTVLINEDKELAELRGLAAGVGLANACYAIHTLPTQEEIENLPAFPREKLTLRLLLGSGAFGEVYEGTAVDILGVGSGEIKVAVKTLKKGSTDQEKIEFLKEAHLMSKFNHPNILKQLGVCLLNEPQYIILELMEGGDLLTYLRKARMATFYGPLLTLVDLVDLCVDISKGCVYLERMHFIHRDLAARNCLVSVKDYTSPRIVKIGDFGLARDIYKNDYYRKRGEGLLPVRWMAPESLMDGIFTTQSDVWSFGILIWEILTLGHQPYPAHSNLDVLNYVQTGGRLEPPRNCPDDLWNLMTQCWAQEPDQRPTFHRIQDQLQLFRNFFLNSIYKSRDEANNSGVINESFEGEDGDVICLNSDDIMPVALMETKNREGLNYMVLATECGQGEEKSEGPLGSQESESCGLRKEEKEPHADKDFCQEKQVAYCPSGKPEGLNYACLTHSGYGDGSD
Listed next: entries and their corresponding inhibition at 10 µM.
Dear colleague, please return just the value in %, with no unit written.

Would you kindly share the measured inhibition at 10 µM for Clc1ccc(CNc2cc(-c3ccccc3)ncn2)cc1 [drawing 246] ?
21.2

Tell me the measured inhibition at 10 µM of `Cc1c(Br)c([N+](=O)[O-])nn1[C@H](C)C(=O)Nc1c(C)n(C)n(-c2ccccc2)c1=O` , please.
34.1

Quick one: inhibition at 10 µM for NS(=O)(=O)c1ccc(CCNC(=O)c2cc(-c3cccs3)nc3ccccc23)cc1 [drawing 221] ?
21.5

Which inhibition at 10 µM reading was recorded for the compound NC(Cc1ccccc1)C(=O)n1ccc2cccnc21 (centres unmarked) [drawing 342] ?
26.9

Field request: inhibition at 10 µM | item: COc1ccc(C(F)(F)F)cc1NC(=O)CCn1ccc2ccccc21 [drawing 339]
26.4
